# System: HCT-15 colon
# experimental.protocol: NCI tumour cell line growth inhibition, 48 h

compound	TGI
CC1=NNC(=O)C1C1CC(c2c[nH]c3ccccc23)=NNC1=O (centres undefined)	> 100 µM
O=c1[nH]cc(-c2c[nH]c3ccccc23)nc1-c1c[nH]c2ccccc12	23.7 µM
CCC(C=O)P1(=O)OC(C)(C)CN1C(C)(C)C (centres undefined)	> 100 µM
O=C1NC(=O)C(N2C(=O)c3ccccc3C2=O)CC1O (centres undefined)	> 100 µM
Cc1ccc(NC(Nc2ccc(C)cc2C)=C(/C=C(\Cl)[N+](=O)[O-])[N+](=O)[O-])c(C)c1	11.5 µM
CCCNC(=O)C(C)C1CCC2(C)C=CC(=O)C(C)=C2C1O (centres undefined)	> 100 µM
COc1ccc2cc1Oc1ccc(cc1)C[C@H]1c3c(cc4c(c3Oc3cc5c(cc3OC)CCN(C)[C@@H]5C2)OCO4)CCN1C	8.34 µM
CCOC(=O)C1=C(C)N(c2ccc(Cl)cc2)[C@]2(C#N)C(O)=C(Cl)C(Cl)=C(O)[C@]12C#N	> 100 µM
C[C@]12CC[C@@H]3c4cc(OCC(F)(F)F)c(O)cc4CC[C@H]3[C@@H]1CC[C@@H]2O	15.2 µM
O=C(O)c1cc2c(ncc3c(=O)n(-c4ccccc4)[nH]c32)s1	> 100 µM
O=c1[nH]c(=O)n(C2CC(O)C(COP(=O)(OCc3ccc([N+](=O)[O-])o3)N(CCCCCl)CC(O)CO)O2)cc1F (centres undefined)	> 100 µM
O=c1nc(NC2CCCCO2)ccn1CCO (centres undefined)	> 100 µM
CNCCCNCCCCNCCCN1C(=O)c2ccc3c4c(ccc(c24)C1=O)C(=O)N(CCCNCc1ccccc1OC)C3=O	70.1 µM
O=C(NNCC(O)COc1ccccc1)c1ccccc1 (centres undefined)	> 100 µM
O=C1CCCN1C(=O)CS(=O)(=O)c1ccccc1	> 100 µM
O=[N+]([O-])c1ccc(C=Cc2ccccc2)cc1.[C-]#[O+].[C-]#[O+].[C-]#[O+].[Cr]	> 100 µM
c1ccc2c(c1)C1CCCCCC21N1CCOCC1 (centres undefined)	> 100 µM
O=C1OCC2OC(=O)c3cc(O)c(O)c(O)c3-c3c(O)c(O)c(O)c4c3C(=O)OC(C2OC(=O)c2cc(O)c(O)c(O)c2-c2c1cc(O)c(O)c2O)C1OC(=O)c2c-4c(O)c(O)c(O)c2[C@@H]1C(O)C(O)C(O)C(O)CO (some centres undefined)	37.7 µM
N#Cc1c(N2CCOCC2)nc(=S)[nH]c1-c1ccco1	> 100 µM
CC(=O)Nc1ccc(SC#N)c2c(NC(C)=O)cccc12	> 100 µM
CC(=O)Oc1cc2c(cc1OC(C)=O)OCC(c1ccccc1)C2 (centres undefined)	56.4 µM
Nc1n[n+](CC(=O)c2ccccc2)c2sc(-c3ccccc3)nn12	> 100 µM
Cc1cccc(C)c1NC(=O)/C(=N/NC(N)=S)C(C)C(=O)c1ccc(Cl)cc1 (centres undefined)	> 100 µM
O=C(OCc1ccc2ccccc2n1)c1cn(C2CC2)c2cc(N3CCN(Cc4ccc5ccccc5n4)CC3)c(F)cc2c1=O	> 100 µM
CCCN(CCS(C)(=O)=O)Cc1ccc(-c2ccc3ncnc(Nc4ccc(OCc5cccc(F)c5)c(Cl)c4)c3c2)o1	> 25 µM
O=C1NC(=O)C2C(=O)NC(=O)C1C2c1c(Cl)cccc1Cl (centres undefined)	> 100 µM
O=C(NC1CCCCC1)NS(=O)(=O)c1ccc2c(c1)CCC2	> 100 µM
CCOC(=O)/C(C=Nc1c(C)n(C)n(-c2ccccc2)c1=O)=C(/C)O	> 100 µM
CO/C(=N\N=C\c1ccc(OC)c(OC)c1)c1ccncc1	> 10 µM
